biological target: Luciferin 4-monooxygenase (Photinus pyralis); experiment: FLuc inhibitory activity for the follow-up compounds in a biochemical assay with an in-house formulation of detection reagent; settings: purified FLuc, luminescence; series mostly up to 25.6 µM
Inconclusive results are not listed. Calls of active or inactive are those of the source. Calls follow the shape of the dose curve; as a rule, active = well fitted inhibition curve with a large enough effect; inconclusive = small, poorly fitted or top-dose-only effect; inactive = no such curve, though single readings can be large or run the other way.
Output constraint: value belongs to active, inactive

Which result was noted for this compound in the test: `O=C(Nc1c(Cl)cc(Cl)cc1-c1nc2ccccc2s1)c1ccc(Br)o1`
active

Which result was noted for this compound in the test: `O=C(Nc1ccccc1C(=O)O)c1cccc(NC(=O)c2ccccc2Br)c1`
inactive

Which result was noted for this compound in the test: `Nc1ccccc1-c1nc2ccccc2s1`
inactive

Which result was noted for this compound in the test: `O=C(Nc1cccc(-c2nc3ccccc3s2)c1)c1cc(-n2cnnc2)ccc1Cl`
inactive
